# Assayed target: FAK (Homo sapiens, UniProt Q05397)
# Sequence (Q05397 whole entry): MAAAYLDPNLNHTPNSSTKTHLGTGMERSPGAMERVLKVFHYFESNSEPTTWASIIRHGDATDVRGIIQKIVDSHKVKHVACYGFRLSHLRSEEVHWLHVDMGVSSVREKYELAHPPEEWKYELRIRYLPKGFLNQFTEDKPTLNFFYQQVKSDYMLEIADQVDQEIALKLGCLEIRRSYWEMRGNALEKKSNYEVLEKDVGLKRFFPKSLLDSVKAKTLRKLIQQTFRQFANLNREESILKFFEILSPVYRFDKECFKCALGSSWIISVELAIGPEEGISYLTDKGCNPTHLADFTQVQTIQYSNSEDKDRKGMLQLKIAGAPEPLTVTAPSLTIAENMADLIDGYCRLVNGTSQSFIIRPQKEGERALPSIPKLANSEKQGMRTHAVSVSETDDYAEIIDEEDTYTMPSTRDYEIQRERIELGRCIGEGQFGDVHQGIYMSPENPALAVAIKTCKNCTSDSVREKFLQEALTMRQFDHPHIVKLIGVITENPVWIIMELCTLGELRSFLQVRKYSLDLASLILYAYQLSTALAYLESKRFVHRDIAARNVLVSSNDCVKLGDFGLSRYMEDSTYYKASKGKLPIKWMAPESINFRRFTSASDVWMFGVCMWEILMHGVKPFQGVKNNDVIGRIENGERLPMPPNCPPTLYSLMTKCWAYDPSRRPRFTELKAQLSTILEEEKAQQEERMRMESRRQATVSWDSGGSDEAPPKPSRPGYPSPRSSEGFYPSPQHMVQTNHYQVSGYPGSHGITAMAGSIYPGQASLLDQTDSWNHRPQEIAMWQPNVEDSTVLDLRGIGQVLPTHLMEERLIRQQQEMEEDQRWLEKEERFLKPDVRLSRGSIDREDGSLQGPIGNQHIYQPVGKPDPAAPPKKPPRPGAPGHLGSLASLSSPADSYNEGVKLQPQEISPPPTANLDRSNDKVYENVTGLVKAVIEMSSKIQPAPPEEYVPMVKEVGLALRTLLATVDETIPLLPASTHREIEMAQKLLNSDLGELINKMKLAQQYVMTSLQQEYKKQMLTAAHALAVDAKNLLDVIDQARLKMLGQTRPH
# Assay remarks: Kinase profiling
# Assay type: biochemical
# Recorded conditions: one of the other seven tyrosine kinases
Test readout: IC50

input: Which IC50 is reported for this molecule? COC(=O)C/C(C)=C/C(=O)O[C@@H]1C[C@@H](C)[C@H]2[C@@H](C=C[C@H](CC(C)C)[C@]2(C)C(=O)/C=C\O)[C@@H]1O
output: > 100 µM

====

# Tested on: MCF-7 cells
# Assay remarks: MTT assay, MCF-7 growth inhibition
# Format: cell-based, human
# Recorded conditions: Homo sapiens, MCF7; MTT, 24 h; read-out: EC50, MCF-7 cell viability
Test readout: EC50 (µM)
// units = µM; emit number, no label

# Smiles entry, Assayed target, Unit of measure, EC50
records = [
    ("COC(=O)C/C(C)=C/C(=O)O[C@@H]1C[C@@H](C)[C@H]2[C@@H](C=C[C@H](CC(C)C)[C@]2(C)C(=O)/C=C\\O)[C@@H]1O", "MCF-7 cells", "µM", 3),
]

input: Which EC50 is reported for this compound? CC[C@@H](C)[C@H]1C=C[C@H]2[C@H](OC(=O)/C=C(\C)CC(=O)OC)[C@H](O)C[C@@H](C)[C@@H]2[C@@]1(C)C(=O)CCO
output: 9.2

====

# Assayed target: HER4 (Homo sapiens)
# Sequence (Q15303 26-1308): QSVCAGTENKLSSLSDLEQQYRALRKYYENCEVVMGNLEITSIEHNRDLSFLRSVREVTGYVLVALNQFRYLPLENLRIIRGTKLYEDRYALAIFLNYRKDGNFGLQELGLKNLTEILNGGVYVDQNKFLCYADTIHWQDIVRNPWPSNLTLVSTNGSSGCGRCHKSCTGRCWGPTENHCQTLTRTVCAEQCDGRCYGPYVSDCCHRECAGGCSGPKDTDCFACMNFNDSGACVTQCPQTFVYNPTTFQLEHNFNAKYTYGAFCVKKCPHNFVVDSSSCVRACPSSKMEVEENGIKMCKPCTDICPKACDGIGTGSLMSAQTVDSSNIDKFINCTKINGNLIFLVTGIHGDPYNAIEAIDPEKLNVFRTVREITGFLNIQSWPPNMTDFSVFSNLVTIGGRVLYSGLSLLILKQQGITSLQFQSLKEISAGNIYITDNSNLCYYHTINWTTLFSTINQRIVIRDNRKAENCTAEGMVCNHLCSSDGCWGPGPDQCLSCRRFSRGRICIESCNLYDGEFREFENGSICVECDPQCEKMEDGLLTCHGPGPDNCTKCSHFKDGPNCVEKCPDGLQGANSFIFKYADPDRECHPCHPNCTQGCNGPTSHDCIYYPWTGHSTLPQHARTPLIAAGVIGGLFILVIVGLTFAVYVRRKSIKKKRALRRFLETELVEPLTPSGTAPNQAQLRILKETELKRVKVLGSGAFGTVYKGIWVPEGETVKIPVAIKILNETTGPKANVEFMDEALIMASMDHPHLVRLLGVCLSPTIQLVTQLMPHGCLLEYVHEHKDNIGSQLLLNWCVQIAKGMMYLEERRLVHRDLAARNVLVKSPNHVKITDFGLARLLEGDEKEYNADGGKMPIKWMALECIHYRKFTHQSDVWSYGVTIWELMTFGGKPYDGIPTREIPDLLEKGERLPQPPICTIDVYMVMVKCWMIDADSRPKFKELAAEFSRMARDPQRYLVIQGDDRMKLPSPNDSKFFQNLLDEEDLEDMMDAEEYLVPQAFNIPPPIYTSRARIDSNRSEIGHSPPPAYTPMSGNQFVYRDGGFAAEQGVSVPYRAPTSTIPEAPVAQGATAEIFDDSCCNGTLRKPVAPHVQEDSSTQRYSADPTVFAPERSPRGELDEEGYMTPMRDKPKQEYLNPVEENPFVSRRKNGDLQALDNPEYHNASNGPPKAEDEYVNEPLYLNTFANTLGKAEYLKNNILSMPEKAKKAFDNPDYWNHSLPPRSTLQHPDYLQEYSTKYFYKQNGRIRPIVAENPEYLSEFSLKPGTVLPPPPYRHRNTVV
Test readout: IC50
Give the number first and the unit second.

input: Which IC50 is reported for this molecule? COC(=O)C/C(C)=C/C(=O)O[C@@H]1C[C@@H](C)[C@H]2[C@@H](C=C[C@H](CC(C)C)[C@]2(C)C(=O)/C=C\O)[C@@H]1O [Tandyukisin]
output: 31.1 nM

====

# Assayed target: ECK (Homo sapiens, UniProt P29317)
# Sequence (P29317 24-976): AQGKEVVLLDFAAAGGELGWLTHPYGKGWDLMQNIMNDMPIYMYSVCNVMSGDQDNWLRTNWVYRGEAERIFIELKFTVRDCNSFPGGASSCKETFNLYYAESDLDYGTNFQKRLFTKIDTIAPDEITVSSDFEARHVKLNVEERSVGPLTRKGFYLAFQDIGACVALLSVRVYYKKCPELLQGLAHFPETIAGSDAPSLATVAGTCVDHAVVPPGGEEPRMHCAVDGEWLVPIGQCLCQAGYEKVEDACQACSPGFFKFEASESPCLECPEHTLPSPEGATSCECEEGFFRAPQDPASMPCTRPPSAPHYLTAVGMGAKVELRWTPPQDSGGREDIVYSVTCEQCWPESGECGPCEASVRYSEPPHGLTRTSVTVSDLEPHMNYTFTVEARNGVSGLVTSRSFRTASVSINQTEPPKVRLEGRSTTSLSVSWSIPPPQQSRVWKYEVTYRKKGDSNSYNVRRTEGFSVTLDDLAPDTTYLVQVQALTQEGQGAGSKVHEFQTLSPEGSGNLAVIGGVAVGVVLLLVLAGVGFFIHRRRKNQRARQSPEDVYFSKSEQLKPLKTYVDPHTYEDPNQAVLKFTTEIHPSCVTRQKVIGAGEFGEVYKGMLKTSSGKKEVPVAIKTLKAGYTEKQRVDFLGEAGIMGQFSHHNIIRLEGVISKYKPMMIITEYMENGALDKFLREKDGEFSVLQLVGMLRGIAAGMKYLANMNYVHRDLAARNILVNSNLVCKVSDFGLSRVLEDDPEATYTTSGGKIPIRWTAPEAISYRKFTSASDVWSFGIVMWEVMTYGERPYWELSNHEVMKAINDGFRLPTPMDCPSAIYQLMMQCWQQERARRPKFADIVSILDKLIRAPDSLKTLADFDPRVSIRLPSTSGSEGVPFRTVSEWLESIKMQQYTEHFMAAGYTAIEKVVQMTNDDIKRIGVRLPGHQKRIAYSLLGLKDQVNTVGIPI
Test readout: IC50

input: Which IC50 is reported for this compound? COC(=O)C/C(C)=C/C(=O)O[C@@H]1C[C@@H](C)[C@H]2[C@@H](C=C[C@H](CC(C)C)[C@]2(C)C(=O)/C=C\O)[C@@H]1O [Tandyukisin]
output: > 100 µM
